Data origin, for the record: the kinase profiling compilation of Christmann-Franck et al. (2016)

system tested: CDK11A (human) (UniProt Q9UQ88)
Sequence (Q9UQ88 whole entry, looked up): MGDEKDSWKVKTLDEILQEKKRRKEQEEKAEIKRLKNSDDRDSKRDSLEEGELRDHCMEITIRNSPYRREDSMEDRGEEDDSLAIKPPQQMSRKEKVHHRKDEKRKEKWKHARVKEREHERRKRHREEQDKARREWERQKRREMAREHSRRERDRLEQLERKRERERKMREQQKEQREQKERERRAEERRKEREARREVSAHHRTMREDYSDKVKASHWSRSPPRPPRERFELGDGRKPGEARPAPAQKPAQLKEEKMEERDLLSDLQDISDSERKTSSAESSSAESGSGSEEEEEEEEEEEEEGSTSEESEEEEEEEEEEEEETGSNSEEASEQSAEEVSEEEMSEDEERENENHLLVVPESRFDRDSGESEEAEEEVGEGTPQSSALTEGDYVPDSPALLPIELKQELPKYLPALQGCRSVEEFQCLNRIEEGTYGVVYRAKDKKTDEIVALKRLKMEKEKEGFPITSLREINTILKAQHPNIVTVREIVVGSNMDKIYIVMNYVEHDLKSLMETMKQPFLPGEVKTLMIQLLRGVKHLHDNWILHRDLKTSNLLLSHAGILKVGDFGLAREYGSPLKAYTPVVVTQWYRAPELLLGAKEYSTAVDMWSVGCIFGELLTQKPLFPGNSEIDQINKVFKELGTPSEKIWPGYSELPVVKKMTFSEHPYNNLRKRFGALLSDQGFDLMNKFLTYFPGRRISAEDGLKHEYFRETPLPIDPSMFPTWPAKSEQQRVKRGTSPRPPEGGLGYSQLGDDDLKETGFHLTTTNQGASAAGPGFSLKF
method notes: KINOMEscan competition binding
measurement setup: compound 10.0 µM
Answer each item with its documented kinase still bound, per cent of control.
Give the quantity in %, number only.

input: Report kinase still bound, per cent of control for `O=C1NC(=S)S/C1=C\c1ccc(-c2cncc3ccccc23)o1` please.
output: 2

input: Param item: `CCN1CCN(Cc2cc(NC(=O)c3cccc4cc(-c5ccc(/C=C6\SC(=O)NC6=O)o5)ccc34)cc(C(F)(F)F)c2)CC1`
output: 24

input: Param item: `N=C1NC(=O)/C(=C/c2ccc(-c3cncc4ccccc34)o2)S1`
output: 0.45

input: Param item: `COc1cc(N2CCN(C)CC2)ccc1Nc1ncc2c(n1)Nc1ccccc1NC2=O`
output: 82

input: Param item: `O=C1NC(=O)C(=Cc2ccc(-c3ccc(F)cc3O)o2)C(=O)N1`
output: 31

input: Param item: `CN1CCN(c2ccc(C(=O)Nc3ncc4c(n3)N(C)c3ccccc3C(=O)N4C)cc2)CC1`
output: 100

input: Param item: `CN1C(=O)c2ccccc2N(C)c2nc(NS(=O)(=O)c3ccc(N)cc3)ncc21`
output: 99

input: Param item: `COc1cc(N2CCN(C)CC2)ccc1Nc1ncc2c(n1)N(C)c1ccccc1N(C)C2=O`
output: 80

input: Param item: `CN1C(=O)c2ccccc2N(C)c2nc(Nc3ccc(N4CCC(O)CC4)cc3)ncc21`
output: 100

input: Param item: `O=C1NC(=O)/C(=C/c2c[nH]c(=O)c(-c3ccc(N4CCNCC4)nc3)c2)S1`
output: 63

input: Param item: `COc1cc(N2CCC(O)CC2)ccc1Nc1ncc2c(n1)N1CCc3cccc(c31)C(=O)N2C`
output: 100

input: Param item: `COc1cc(N2CCN(C)CC2)ccc1Nc1ncc2c(n1)N(C)c1sccc1C(=O)N2C`
output: 95

---

Answer each item with its documented kinase still bound, per cent of control.
system tested: PIK3C2B (human) (UniProt O00750)
Sequence (O00750 whole entry, looked up): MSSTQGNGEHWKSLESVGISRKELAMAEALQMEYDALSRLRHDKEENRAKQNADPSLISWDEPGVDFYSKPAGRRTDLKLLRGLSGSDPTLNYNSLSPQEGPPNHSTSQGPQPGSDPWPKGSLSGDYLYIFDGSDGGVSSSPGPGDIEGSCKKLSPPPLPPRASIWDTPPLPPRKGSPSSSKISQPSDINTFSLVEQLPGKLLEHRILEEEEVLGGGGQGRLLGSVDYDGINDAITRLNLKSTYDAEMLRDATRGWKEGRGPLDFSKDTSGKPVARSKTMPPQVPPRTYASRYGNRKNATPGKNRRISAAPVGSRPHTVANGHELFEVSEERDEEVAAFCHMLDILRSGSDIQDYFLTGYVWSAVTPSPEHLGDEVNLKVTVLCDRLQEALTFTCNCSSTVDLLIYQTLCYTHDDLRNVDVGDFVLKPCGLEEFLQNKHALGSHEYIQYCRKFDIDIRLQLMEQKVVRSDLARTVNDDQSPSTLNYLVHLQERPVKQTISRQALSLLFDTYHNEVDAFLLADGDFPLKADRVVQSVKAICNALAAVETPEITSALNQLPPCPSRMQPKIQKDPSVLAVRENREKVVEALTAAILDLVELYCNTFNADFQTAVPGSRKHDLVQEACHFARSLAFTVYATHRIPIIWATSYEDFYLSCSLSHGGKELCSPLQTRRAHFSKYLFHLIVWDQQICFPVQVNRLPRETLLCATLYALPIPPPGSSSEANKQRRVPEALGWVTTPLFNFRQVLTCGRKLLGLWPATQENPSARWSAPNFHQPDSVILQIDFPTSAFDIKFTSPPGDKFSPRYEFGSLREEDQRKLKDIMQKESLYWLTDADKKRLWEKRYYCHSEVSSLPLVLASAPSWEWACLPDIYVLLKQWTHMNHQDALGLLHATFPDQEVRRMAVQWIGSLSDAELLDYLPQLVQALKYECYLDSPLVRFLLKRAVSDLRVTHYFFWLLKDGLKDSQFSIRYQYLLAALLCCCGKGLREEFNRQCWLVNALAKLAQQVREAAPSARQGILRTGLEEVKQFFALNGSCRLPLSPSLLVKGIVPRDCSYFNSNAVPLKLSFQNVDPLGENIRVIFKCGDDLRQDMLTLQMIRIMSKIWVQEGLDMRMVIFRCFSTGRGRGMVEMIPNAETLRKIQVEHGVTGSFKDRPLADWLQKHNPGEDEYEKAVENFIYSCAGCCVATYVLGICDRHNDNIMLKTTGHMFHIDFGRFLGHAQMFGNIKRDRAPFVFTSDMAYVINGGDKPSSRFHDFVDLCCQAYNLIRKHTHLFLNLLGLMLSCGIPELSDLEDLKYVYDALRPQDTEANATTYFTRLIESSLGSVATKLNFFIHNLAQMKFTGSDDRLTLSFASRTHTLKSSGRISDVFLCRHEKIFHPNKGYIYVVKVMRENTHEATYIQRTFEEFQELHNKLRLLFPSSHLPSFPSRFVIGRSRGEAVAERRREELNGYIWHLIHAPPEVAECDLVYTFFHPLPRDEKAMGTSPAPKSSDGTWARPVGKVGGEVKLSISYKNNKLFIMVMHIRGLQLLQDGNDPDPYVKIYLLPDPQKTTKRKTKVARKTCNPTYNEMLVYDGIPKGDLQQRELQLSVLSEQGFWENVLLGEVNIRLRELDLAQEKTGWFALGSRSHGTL
method notes: KINOMEscan competition binding
measurement setup: compound 10.0 µM
Give the quantity in %, number only.

input: Report kinase still bound, per cent of control for `CN1C(=O)c2ccccc2N(C)c2nc(Nc3ccc(N4CCC(O)CC4)cc3)ncc21` please.
output: 89

input: Param item: `COc1cc(N2CCN(C)CC2)ccc1Nc1ncc2c(n1)N(C)c1sccc1C(=O)N2C`
output: 85

input: Param item: `COc1cc(N2CCN(C)CC2)ccc1Nc1ncc2c(n1)N(C)c1ccccc1N(C)C2=O`
output: 100

input: Param item: `Nc1cnc(/C=C/c2ccc(-c3ccc(S(N)(=O)=O)cc3)o2)cn1`
output: 31

input: Param item: `O=C1NC(=O)/C(=C/c2c[nH]c(=O)c(-c3ccc(N4CCNCC4)nc3)c2)S1`
output: 90

input: Param item: `N=C1NC(=O)/C(=C/c2ccc(-c3ccc(C(N)=O)cc3O)o2)S1`
output: 28

input: Param item: `O=C1NC(=O)/C(=C/c2ccc(-c3ccc(F)cc3O)o2)S1`
output: 19

input: Param item: `COc1cc(N2CCC(O)CC2)ccc1Nc1ncc2c(n1)N1CCc3cccc(c31)C(=O)N2C`
output: 100

input: Param item: `N=C1NC(=O)/C(=C/c2ccc(-c3ccccc3O)o2)S1`
output: 31

input: Param item: `CN1CCN(c2ccc(C(=O)Nc3ncc4c(n3)N(C)c3ccccc3C(=O)N4C)cc2)CC1`
output: 99

input: Param item: `CN1C(=O)c2ccccc2N(C)c2nc(NS(=O)(=O)c3ccc(N)cc3)ncc21`
output: 97

input: Param item: `COc1cc(N2CCN(C)CC2)ccc1Nc1ncc2c(n1)Nc1ccccc1NC2=O`
output: 100

input: Param item: `O=C1NC(=O)C(=Cc2ccc(-c3ccc(S(=O)(=O)N4CCNCC4)cc3)o2)C(=O)N1`
output: 0.6

input: Param item: `NS(=O)(=O)c1ccc(-c2ccc(/C=C3\SC(=O)NC3=O)o2)cc1`
output: 18
